- tgt: OATP1B1 (Homo sapiens, UniProt Q9Y6L6)
- Construct: host or cells: CHO (Chinese hamster ovary) cells, stably transfected
- Sequence (Q9Y6L6 whole entry): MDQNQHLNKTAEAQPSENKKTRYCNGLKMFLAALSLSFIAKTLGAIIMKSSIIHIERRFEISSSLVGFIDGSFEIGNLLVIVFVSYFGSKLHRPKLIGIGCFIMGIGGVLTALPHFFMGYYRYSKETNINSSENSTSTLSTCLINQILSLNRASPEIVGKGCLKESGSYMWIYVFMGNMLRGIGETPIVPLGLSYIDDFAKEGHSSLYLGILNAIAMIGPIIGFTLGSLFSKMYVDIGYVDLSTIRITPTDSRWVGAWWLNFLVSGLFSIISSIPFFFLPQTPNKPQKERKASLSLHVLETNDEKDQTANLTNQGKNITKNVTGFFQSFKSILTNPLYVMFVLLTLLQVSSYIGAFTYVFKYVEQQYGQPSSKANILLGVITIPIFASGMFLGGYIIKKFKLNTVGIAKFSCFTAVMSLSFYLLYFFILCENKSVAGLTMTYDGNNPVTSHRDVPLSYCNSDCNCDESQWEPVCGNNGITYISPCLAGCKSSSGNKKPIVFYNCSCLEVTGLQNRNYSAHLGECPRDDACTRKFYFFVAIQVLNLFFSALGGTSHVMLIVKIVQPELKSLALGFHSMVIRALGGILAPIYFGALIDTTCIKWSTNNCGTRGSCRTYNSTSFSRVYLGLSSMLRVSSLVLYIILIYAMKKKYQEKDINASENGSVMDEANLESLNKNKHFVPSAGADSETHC
- test_protocol: Inhibition of FMTX uptake in CHO cells stably transfected with OATP1B1
- Type: cell-based
- settings: CHO cells stably transfected with OATP1B1; 5 μM FMTX, 10 min, 37 °C; means ± SD of three independent experiments
Where a name gives a salt, the structure may show the parent alone.
Documented IC50 across a set of compounds
Give the quantity in µM, number only.

Consider the reported IC50 for these compounds:
Cc1cc2nc3c(=O)[nH]c(=O)nc-3n(C[C@H](O)[C@H](O)[C@H](O)COP(=O)(O)OP(=O)(O)OC[C@H]3O[C@@H](n4cnc5c(N)ncnc54)[C@H](O)[C@@H]3O)c2cc1C [Flavin adenine dinucleotide]
6.62
CCC(=O)O[C@@H](O[P@](=O)(CCCCc1ccccc1)CC(=O)N1C[C@H](C2CCCCC2)C[C@H]1C(=O)O)C(C)C [Fosinopril sodium]
6.28
COc1cc(C(=O)NS(=O)(=O)c2ccccc2C)ccc1Cc1cn(C)c2ccc(NC(=O)OC3CCCC3)cc12
7.84
CO[C@H]1C[C@@H]2CC[C@@H](C)[C@@](O)(O2)C(=O)C(=O)N2CCCC[C@H]2C(=O)O[C@H]([C@H](C)C[C@@H]2CC[C@@H](O)[C@H](OC)C2)CC(=O)[C@H](C)/C=C(\C)[C@@H](O)[C@@H](OC)C(=O)[C@H](C)C[C@H](C)/C=C/C=C/C=C/1C [Rapamycin (Sirolimus)]
0.62
COc1ccc2c(c1)C(=O)N(CCc1ccc(S(=O)(=O)NC(=O)NC3CCCCC3)cc1)C(=O)C2(C)C
7.45

// switching to the query compound
Fill blank: measured IC50 of the compound CCCCc1oc2ccc(NS(C)(=O)=O)cc2c1C(=O)c1ccc(OCCCN(CCCC)CCCC)cc1 [Dronedarone hydrochlorid e] is ____.
0.32

====

- tgt: OATP1B3 (Homo sapiens)
- Construct: host or cells: CHO (Chinese hamster ovary) cells, stably transfected
- test_protocol: Inhibition of FMTX uptake in CHO cells stably transfected with OATP1B3
- Type: cell-based
- settings: CHO cells stably transfected with OATP1B3; 5 μM FMTX, 10 min, 37 °C; means ± SD of three independent experiments; read-out: IC50 (μM) OATP1B3
Structures can show the parent of a compound that is named as a salt.
measurement_label: IC50 (µM)
Give the quantity in µM, number only.

Consider the reported IC50 for these compounds:
CC(C)C[C@H](NC(=O)[C@H](CCc1ccccc1)NC(=O)CN1CCOCC1)C(=O)N[C@@H](Cc1ccccc1)C(=O)N[C@@H](CC(C)C)C(=O)[C@@]1(C)CO1 [Carfilzomib]
0.9
COc1ccc2c(c1)C(=O)N(CCc1ccc(S(=O)(=O)NC(=O)NC3CCCCC3)cc1)C(=O)C2(C)C [Gliquidone]
1.17
CCC(=O)O[C@@H](O[P@](=O)(CCCCc1ccccc1)CC(=O)N1C[C@H](C2CCCCC2)C[C@H]1C(=O)O)C(C)C [Fosinopril sodium]
5.19
CCCCc1oc2ccc(NS(C)(=O)=O)cc2c1C(=O)c1ccc(OCCCN(CCCC)CCCC)cc1 [Dronedarone hydrochlorid e]
1.12
CN(C)c1cccc2c(S(=O)(=O)N[C@@H](Cc3ccc(OS(=O)(=O)c4cccc5c(N(C)C)cccc45)cc3)C(=O)O)cccc12 [N,O-Didansyl-L-Tyrosine]
2.94

Fill blank: measured IC50 of the compound Cc1cc2nc3c(=O)[nH]c(=O)nc-3n(C[C@H](O)[C@H](O)[C@H](O)COP(=O)(O)OP(=O)(O)OC[C@H]3O[C@@H](n4cnc5c(N)ncnc54)[C@H](O)[C@@H]3O)c2cc1C [Flavin adenine dinucleotide] is ____.
10

Fill blank: measured IC50 of the compound COc1cc(C(=O)NS(=O)(=O)c2ccccc2C)ccc1Cc1cn(C)c2ccc(NC(=O)OC3CCCC3)cc12 [Zafirlukast] is ____.
4.96

====

- tgt: OATP1B1 (Homo sapiens, UniProt Q9Y6L6)
- Construct: host or cells: CHO (Chinese hamster ovary) cells, stably transfected
- test_protocol: Inhibition of FMTX uptake in CHO cells stably transfected with OATP1B1
- Assay type: cell-based
- settings: CHO cells stably transfected with OATP1B1; 5 μM FMTX, 10 min, 37 °C; means ± SD of three independent experiments
Documented IC50 across a set of compounds

Consider the reported IC50 for these compounds:
CS(=O)(=O)CCNCc1ccc(-c2ccc3ncnc(Nc4ccc(OCc5cccc(F)c5)c(Cl)c4)c3c2)o1 [Lapatinib]
0.37 µM
CC(=O)Nc1cccc(-n2c(=O)n(C3CC3)c(=O)c3c(Nc4ccc(I)cc4F)n(C)c(=O)c(C)c32)c1 [Trametinib]
0.34 µM
CN(C)c1cccc2c(S(=O)(=O)N[C@@H](Cc3ccc(OS(=O)(=O)c4cccc5c(N(C)C)cccc45)cc3)C(=O)O)cccc12 [N,O-Didansyl-L-Tyrosine]
6.07 µM

Fill blank: measured IC50 of the compound CC(C)C[C@H](NC(=O)[C@H](CCc1ccccc1)NC(=O)CN1CCOCC1)C(=O)N[C@@H](Cc1ccccc1)C(=O)N[C@@H](CC(C)C)C(=O)[C@@]1(C)CO1 [Carfilzomib] is ____.
0.38 µM

====

- tgt: OATP1B3 (Homo sapiens, UniProt Q9NPD5)
- Construct: host or cells: CHO (Chinese hamster ovary) cells, stably transfected
- Sequence (Q9NPD5 whole entry): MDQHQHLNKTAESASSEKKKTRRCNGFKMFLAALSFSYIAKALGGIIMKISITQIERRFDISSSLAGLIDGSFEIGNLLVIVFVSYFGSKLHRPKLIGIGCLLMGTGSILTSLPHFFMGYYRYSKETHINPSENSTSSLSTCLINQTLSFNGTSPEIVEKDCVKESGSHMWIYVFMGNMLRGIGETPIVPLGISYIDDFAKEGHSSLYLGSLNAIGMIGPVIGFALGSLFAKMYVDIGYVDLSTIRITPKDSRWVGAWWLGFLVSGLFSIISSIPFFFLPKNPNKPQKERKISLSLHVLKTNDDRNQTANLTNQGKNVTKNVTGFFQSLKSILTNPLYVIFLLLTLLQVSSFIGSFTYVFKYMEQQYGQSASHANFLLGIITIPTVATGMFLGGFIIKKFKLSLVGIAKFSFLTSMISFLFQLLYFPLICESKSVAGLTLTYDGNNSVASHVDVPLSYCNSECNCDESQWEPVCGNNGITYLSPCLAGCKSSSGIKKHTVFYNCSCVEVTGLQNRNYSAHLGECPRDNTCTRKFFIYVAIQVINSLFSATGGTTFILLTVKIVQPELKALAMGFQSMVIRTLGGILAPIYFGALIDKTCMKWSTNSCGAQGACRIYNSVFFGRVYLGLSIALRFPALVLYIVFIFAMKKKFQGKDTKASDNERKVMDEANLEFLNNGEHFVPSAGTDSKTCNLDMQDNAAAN
- test_protocol: Inhibition of FMTX uptake in CHO cells stably transfected with OATP1B3
- Assay type: cell-based
- settings: remark printed after the IC50 value; read-out: OATP1B3 inhibition, remark in the IC50 cell
- Protocol: Chinese hamster ovary (CHO) cells that were stably transfected with OATP1B1 or OATP1B3 and wild-type CHO cells were provided by the University of Zurich, Switzerland, and have been extensively characterized previously.[24],[56],[57] […] Fluorescence was measured in an Enspire Multimode plate reader (PerkinElmer, Waltham, MA) at an excitation wavelength of 485 and an emission wavelength of 528 nm. […]
pIC50: −log10 of the molar value.
measurement_label: pIC50

CS(=O)(=O)CCNCc1ccc(-c2ccc3ncnc(Nc4ccc(OCc5cccc(F)c5)c(Cl)c4)c3c2)o1
< 5.00

// switching to the query compound
Fill blank: measured pIC50 of the compound CC(=O)Nc1cccc(-n2c(=O)n(C3CC3)c(=O)c3c(Nc4ccc(I)cc4F)n(C)c(=O)c(C)c32)c1 is ____.
< 5.00
